- MEASURED ON: T1, human RANKL protein (Sino Biological, 11682-HNCH) (human, UniProt O14788 136-317, limits assumed)
- T1 construct: Bought protein
- T1 sequence (looked up): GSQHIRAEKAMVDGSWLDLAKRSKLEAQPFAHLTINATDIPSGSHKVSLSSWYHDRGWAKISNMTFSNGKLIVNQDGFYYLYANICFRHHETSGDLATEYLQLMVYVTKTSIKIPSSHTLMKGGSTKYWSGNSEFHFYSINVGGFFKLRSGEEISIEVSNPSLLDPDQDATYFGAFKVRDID
- ASSAY COMMENT: SPR (Biacore), antibody captured on Protein A chip, RANKL in flow, 1:1 fit
Could you please report measured Ratio of affinities (fold increase in affinity relative to denosumab) for the items listed next?
Give bare numbers, in fold.

Some entries whose results are on file:
5-58H (antibody, V domains shown, Variable regions fused to human constant regions) VH: EVQLLESGGGLVQPGGSLRLSCAASGFTFSSYAMSWVRQAPGKGLEWVSGITGSGGSTYYADSVKGRFTISRDNSKNTLYLQMNSLRAEDTAVYYCVQDPGFTYIMSWFDPWGQGTLVTVSS VL: EIVLTQSPGTLSLSPGERATLSCRASQSVRGRYLAWYQQKPGQAPRLLIYGASSRATGIPDRFSGSGSGTDFTLTISRLEPEDFAVFYCQQYGSSPRTFGQGTKVEIK    0.23
3-85L (antibody, V domains shown, Variable regions fused to human constant regions) VH: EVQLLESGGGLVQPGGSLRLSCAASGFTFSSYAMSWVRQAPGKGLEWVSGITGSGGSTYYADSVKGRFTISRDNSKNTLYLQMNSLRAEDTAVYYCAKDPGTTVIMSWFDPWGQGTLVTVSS VL: EIVLTQSPGTLSLSPGERATLSCRASQSIPGPRLAWYQQKPGQAPRLLIYGASSRATGIPDRFSGSGSGTDFTLTISRLEPEDFAVFYCQQYGSSPRTFGQGTKVEIK    0.41
2-76L (antibody, IgG4, V domains shown, Variable regions fused to human constant regions) VH: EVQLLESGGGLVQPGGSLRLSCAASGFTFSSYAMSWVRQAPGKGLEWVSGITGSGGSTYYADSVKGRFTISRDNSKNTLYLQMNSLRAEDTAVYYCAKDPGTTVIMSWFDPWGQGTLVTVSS VL: EIVLTQSPGTLSLSPGERATLSCRASQAIPYNQLAWYQQKPGQAPRLLIYGVSSRATGIPDRFSGSGSGTDFTLTISRLEPEDFAVFYCQQYGSSPRTFGQGTKVEIK    0.46
1-22H (antibody, V domains shown, Variable regions were fused to human heavy and light chain constant regions to form complete chains) VH: EVQLLESGGGLVQPGGSLRLSCAASGFTFADYAMSWVRQAPGKGLEWVSGISASGSSTYYADSVKGRFTISRDNSKNTLYLQMNSLRAEDTAVYYCAKDPGTTVIMSWFDPWGQGTLVTVSS VL: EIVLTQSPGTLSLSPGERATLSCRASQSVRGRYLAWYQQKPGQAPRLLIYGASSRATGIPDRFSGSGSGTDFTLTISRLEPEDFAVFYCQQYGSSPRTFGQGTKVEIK    0.94

Turning now to a further record.
Just so you know, measured Ratio of affinities (fold increase in affinity relative to denosumab) for 2-52L (antibody, V domains shown, Variable regions fused to human constant regions) VH: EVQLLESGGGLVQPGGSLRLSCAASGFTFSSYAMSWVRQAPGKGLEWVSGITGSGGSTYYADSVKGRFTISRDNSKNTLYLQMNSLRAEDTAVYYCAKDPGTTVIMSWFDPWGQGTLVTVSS VL: EIVLTQSPGTLSLSPGERATLSCRASQSVRGRYLAWYQQKPGQAPRLLIYQGSSRATGIPDRFSGSGSGTDFTLTISRLEPEDFAVFYCQQYGSSPRTFGQGTKVEIK came out at 0.65
